protocol.details: inhibitors of mutant huntingtin aggregation, primary screen, imaging, exon1htt(103Q)mCFP cells, high-content imaging (AID 483);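 note: compound exposure lasted 3 days before fixation; percent of the per-plate median nuclei count of sample wells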
conditions.used: exon1htt(103Q)mCFP cell line, aggregate imaging, at 2 µM; measured here: cell count, toxicity
Reported nuclei count values for a set of compounds
Report only the number, with the unit % understood.

compound | nuclei count, %
O=C(COc1ccccc1)NCC(c1cccs1)N1CCOCC1 (stereo unspecified) | 101
CCOC(=O)C(C)(C)Sc1nc2c(cnn2-c2ccc(Cl)cc2)c(=O)[nH]1 | 119
CCOC(=O)C1=C(N)OC2=C(C(=O)CC(C)(C)C2)C1c1ccco1 (stereo unspecified) | 104
Cc1ccc(C)c2[nH]c(=O)c(CN(CCN3CCCC3)C(=O)Nc3cccc(Cl)c3)cc12 | 67.7
Cc1nnc(SCC(=O)N2CC(=O)Nc3ccccc32)n1-c1ccccc1 | 102
CC(C)(C)n1ncc2c(=O)n(CC(=O)NCc3ccc(F)cc3)cnc21 | 95.8
O=C(O)C1CC=CCC1C(=O)Nc1ccc(S(=O)(=O)N2CCCc3ccccc32)cc1 (stereo unspecified) | 92.3
Cc1nnc(NC(=O)CSc2nc3c(c(=O)n2C)SC(C)C3)s1 (stereo unspecified) | 98.5

Task: # lookup: nuclei count of O=C1CCCN1Cc1ncnn1-c1ccccc1
Result: 114

Task: # lookup: nuclei count of CCCCC(=O)NCCc1cc2c(C)ccc(C)c2[nH]c1=O
Result: 105

Task: # lookup: nuclei count of COc1cc(Cl)c(C)cc1NC(=O)COC(=O)c1cnc(C)cn1
Result: 95.2

###

experimental.target: Dual specificity protein phosphatase 6 (Homo sapiens) (UniProt Q16828)
Sequence (Q16828 whole entry, looked up): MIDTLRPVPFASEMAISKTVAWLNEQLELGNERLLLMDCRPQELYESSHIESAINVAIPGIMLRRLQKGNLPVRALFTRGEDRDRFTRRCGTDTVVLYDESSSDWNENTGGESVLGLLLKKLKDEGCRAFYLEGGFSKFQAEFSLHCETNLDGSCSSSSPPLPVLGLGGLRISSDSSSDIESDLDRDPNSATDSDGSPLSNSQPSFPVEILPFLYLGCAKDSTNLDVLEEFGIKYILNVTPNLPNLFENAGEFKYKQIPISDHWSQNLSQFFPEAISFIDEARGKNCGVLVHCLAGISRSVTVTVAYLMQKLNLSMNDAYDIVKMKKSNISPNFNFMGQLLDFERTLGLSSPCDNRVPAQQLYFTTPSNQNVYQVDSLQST
protocol.details: DUSP6 inhibitors restoring Erk phosphorylation by chemical complementation, primary imaging in DUSP6-transfected HeLa (AID 609);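 for inhibition: phospho-Erk level distribution per well compared with pooled transfected vehicle control wells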
conditions.used: HeLa MKP-3 transfected, phospho-Erk imaging KS statistic; at 10 µM; stronger effect = higher value; cells stimulated with TPA for 15 min
Reported inhibition values for a set of compounds
Report only the number, with the unit % understood.

Some compounds with known inhibition results, for comparison:
compound | measurement.unit | inhibition
O=C(O)c1ccnc(C(=O)O)c1 | % | -4.59
CC1(C)C2CCC1(C)C(OC(=O)CC(=O)O)C2 (configuration not stated) | % | 1.98
O=C1C(=O)N(CCCn2ccnc2)C(c2ccccn2)/C1=C(/O)c1ccccc1 (configuration not stated) | % | 9.37
CCn1c(SCC(=O)Nc2ccccc2C(=O)OC)nnc1-c1ccc(N)cc1 | % | 22.1
CC(NC(=O)Nc1cccnc1)(C(F)(F)F)C(F)(F)F | % | 7.93

Task: # lookup: inhibition of O=C(c1coc(=O)c(Br)c1)N1CCOCC1
Result: -4.7

Task: # lookup: inhibition of O=C(c1ccc(=O)oc1)N1CCN(C(c2ccccc2)c2ccccc2)CC1
Result: -3.95

Task: # lookup: inhibition of N#Cc1cccc(-n2c(-c3ccccc3)nnc2-c2ccccc2)c1C#N
Result: -7.86

Task: # lookup: inhibition of O=C(NCc1cccnc1)NC(C(F)(F)F)C(F)(F)F
Result: 1.63

Task: # lookup: inhibition of CCC(=O)Nc1ccc(-c2nnc(SCC(=O)NCC3CCCO3)n2C)cc1 (configuration not stated)
Result: -2.09

Task: # lookup: inhibition of O=C1C=C(N2CCN(C3=CC(=O)CCC3)CC2)CCC1
Result: -0.233

Task: # lookup: inhibition of CC(C)NCc1c(O)c(Br)cc2oc3c(c12)CCCC3
Result: -7.67

Task: # lookup: inhibition of CCCCC(=O)NC(Nc1ccc(C)cn1)(C(=O)OCC)C(F)(F)F (configuration not stated)
Result: 1.63

Task: # lookup: inhibition of Cn1c(NCc2cccnc2)nc2c1c(=O)n(Cc1ccccc1F)c(=O)n2C
Result: 11.9

Task: # lookup: inhibition of CCCNc1ncnc2c1cnn2-c1ccc(OC)cc1
Result: 1.42

Task: # lookup: inhibition of CCC(=O)Nc1cccc(-c2nnc(SCC(=O)NCc3ccco3)n2C)c1
Result: 18.4

Task: # lookup: inhibition of CSc1nc2sc3c(c2c2nnnn12)CCCC3
Result: -5.81

###

protocol.details: inhibitors of E-selectin induction by TNFa, primary screen, imaging, HUVEC, immunofluorescence, MLSMR starter and 10KST1 sets (AID 487);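 note: 100% = median nuclei count of all wells on the same plate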
conditions.used: HUVEC TNFalpha-induced E-selectin immunofluorescence imaging, at 2 µM; measured here: cell number, toxicity
measured.parameter: nuclei count
The reply should consist of the numeric value with the unit placed after it.

Some compounds with known nuclei count results, for comparison:
compound | nuclei count
O=C(O)C1CCCN(S(=O)(=O)c2ccc(Cl)s2)C1 (stereo not drawn) | 116%
O=C(c1ccc2c(c1)[nH]c(=S)n1c3ccccc3nc21)N1CCN(c2ncccn2)CC1 | 114%
Cn1c(=O)c2c(nc(NCc3ccc4c(c3)OCO4)n2Cc2ccccc2)n(C)c1=O | 96.2%

Task: # lookup: nuclei count of Brc1ccc2c(c1)CNc1c(ncnc1N1CCOCC1)O2
Result: 90%

Task: # lookup: nuclei count of Cc1ccc(C(=O)NCC(C)(C)O)cc1
Result: 87.7%

Task: # lookup: nuclei count of O=C(C1CCN(c2nnc(-n3cccc3)s2)CC1)N1CCOCC1
Result: 102%

Task: # lookup: nuclei count of O=C(Cc1cccs1)NCc1ccc(F)cc1
Result: 93.3%

Task: # lookup: nuclei count of COc1ccccc1C(=O)n1nc(-c2ccc(Cl)cc2)nc1N
Result: 113%

Task: # lookup: nuclei count of O=C(C/C(=N/O)c1ccccc1O)C(F)F
Result: 164%

Task: # lookup: nuclei count of Cc1ccc(-c2nc3cc(NC(=O)C(C)C)ccc3o2)cc1C
Result: 122%

Task: # lookup: nuclei count of COc1ccccc1-c1nnc(SCC(=O)NC2CCCCC2)o1
Result: 104%

Task: # lookup: nuclei count of CCn1c(=O)c(C(=O)NCCc2ccccc2)c(O)c2ccccc21
Result: 104%

Task: # lookup: nuclei count of CCOC(=O)N1CCC(n2c(=S)[nH]c3cc(OC)c(OC)cc3c2=O)CC1
Result: 105%

Task: # lookup: nuclei count of OCc1cn(-c2ccccc2)nc1-c1ccc2c(c1)OCCO2
Result: 112%

Task: # lookup: nuclei count of CN(C)c1ccnc(NCc2ccccc2)c1C#N
Result: 112%

Task: # lookup: nuclei count of COc1ccc(OC)c(Nc2ncnc3c2cnn3-c2ccccc2)c1
Result: 113%

Task: # lookup: nuclei count of CCCCc1nc(NCC2CCCO2)c(C#N)c2c1COC(C)(C)C2 (stereo not drawn)
Result: 135%

###

protocol.details: DUSP6 inhibitors restoring Erk phosphorylation by chemical complementation, primary imaging in DUSP6-transfected HeLa (AID 609)
conditions.used: HeLa MKP-3 transfected, phospho-Erk imaging KS statistic; measured here: nuclear c-Myc green intensity z-score; at 10 µM; cells stimulated with TPA for 15 min
Reported z-score values for a set of compounds
Please reply with the number alone, leaving off any unit.

Task: # lookup: z-score of CCCCC(=O)NC(Nc1ccc(C)cn1)(C(=O)OCC)C(F)(F)F (stereo not drawn)
Result: -1.54

Task: # lookup: z-score of CCCCN1C(=O)C(O)=C(C(C)=O)C1c1ccc(OC)cc1OC (stereo not drawn)
Result: -0.372

Task: # lookup: z-score of CC12CN3CC(C)(CN(C1)C3c1ccc(Cl)cc1Cl)C2O (stereo not drawn)
Result: 1.19

Task: # lookup: z-score of CCCCCSc1nc(C)c(CC(=O)O)c(=O)[nH]1
Result: -0.507

###

protocol.details: DUSP6 inhibitors restoring Erk phosphorylation by chemical complementation, primary imaging in DUSP6-transfected HeLa (AID 609)
conditions.used: HeLa MKP-3 transfected, phospho-Erk imaging KS statistic; measured here: nuclear c-Myc green intensity z-score; at 10 µM; cells stimulated with TPA for 15 min
measured.parameter: z-score
Please reply with the number alone, leaving off any unit.

Some molecules with known z-score results, for comparison:
molecule | reading
Cc1nnc(SCC(=O)N2CCOCC2)c2ccccc12 | 1.47
Cc1cc2c(c(=O)o1)C(CC(C)C)C(C#N)=C(N)O2 (stereo not given) | -0.296
CN(C)CCNC(=O)C12CC3(C)CC(C)(CC(C)(C3)C1)C2 | 1.88
Cn1c(=O)c2c(nc(NCc3ccco3)n2CCc2ccccc2)n(C)c1=O | -0.952
COc1ccc(OC)c(C2/C(=C(\O)c3ccc(OC)c(Cl)c3)C(=O)C(=O)N2CCN(C)C)c1 (stereo not given) | -0.414

Task: # lookup: z-score of COCCCn1c(C)nc2c(c1=O)c1nc3ccccc3nc1n2CCc1ccccc1
Result: -0.364

Task: # lookup: z-score of COC(=O)C(NC(=O)c1ccccc1)(Nc1nccs1)C(F)(F)F (stereo not given)
Result: -0.846

Task: # lookup: z-score of CC(=O)Oc1ccc2c(C)cc(=O)[nH]c2c1
Result: 0.616

Task: # lookup: z-score of Cc1nn(CC(=O)NCCN2CCOCC2)c(=O)c2ccccc12
Result: -0.0587

Task: # lookup: z-score of CCc1nc(NCC(C)C)c(C#N)c2c1COC(C)(C)C2
Result: -0.00331

Task: # lookup: z-score of COc1cc(S(=O)(=O)N2CCN(C)CC2)c(OC)cc1Br
Result: -1.18

Task: # lookup: z-score of Cc1ccc(-c2nn(CCC(=O)NCC3CCCO3)c(=O)c3ccccc23)cc1 (stereo not given)
Result: 0.704
